Kindly supply the reported RBD binding values for the records listed here.
# testTarget: T1, SARS-CoV-2 receptor binding domain (RBD), wild type, His-tagged (BEI NR52309) (SARS-CoV-2, UniProt P0DTC2 319-541)
# T1 construct: also called WT RBD
Quick one: just the number, no unit, thanks!

Reported RBD binding ( mAb 82 (antibody, V domains shown, also called IgG 82) VH: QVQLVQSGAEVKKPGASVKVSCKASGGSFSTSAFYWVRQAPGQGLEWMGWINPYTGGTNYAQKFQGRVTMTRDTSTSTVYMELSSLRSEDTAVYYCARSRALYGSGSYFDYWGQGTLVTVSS VL: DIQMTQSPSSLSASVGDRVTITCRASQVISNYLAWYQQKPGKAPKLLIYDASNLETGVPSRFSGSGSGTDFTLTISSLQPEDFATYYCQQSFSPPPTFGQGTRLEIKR ) = 0.6

Reported RBD binding ( mAb 46 (antibody, V domains shown, also called IgG 46; antibody 46) VH: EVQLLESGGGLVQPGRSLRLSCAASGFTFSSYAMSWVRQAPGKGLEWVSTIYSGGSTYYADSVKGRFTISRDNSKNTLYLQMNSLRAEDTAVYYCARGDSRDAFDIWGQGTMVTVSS VL: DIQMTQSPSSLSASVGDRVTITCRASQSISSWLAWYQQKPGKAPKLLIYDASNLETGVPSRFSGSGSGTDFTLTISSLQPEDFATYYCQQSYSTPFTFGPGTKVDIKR ) = 1.3

Reported RBD binding ( mAb 324 (antibody, V domains shown, also called IgG 324) VH: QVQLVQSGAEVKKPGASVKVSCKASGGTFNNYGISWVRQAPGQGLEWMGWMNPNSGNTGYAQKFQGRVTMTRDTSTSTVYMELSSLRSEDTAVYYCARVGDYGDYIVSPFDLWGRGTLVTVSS VL: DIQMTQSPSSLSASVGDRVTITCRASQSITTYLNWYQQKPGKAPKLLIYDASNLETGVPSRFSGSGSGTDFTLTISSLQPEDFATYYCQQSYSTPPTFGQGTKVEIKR ) = 0.1

Reported RBD binding ( mAb 52 (antibody, V domains shown, also called IgG 52; antibody 52) VH: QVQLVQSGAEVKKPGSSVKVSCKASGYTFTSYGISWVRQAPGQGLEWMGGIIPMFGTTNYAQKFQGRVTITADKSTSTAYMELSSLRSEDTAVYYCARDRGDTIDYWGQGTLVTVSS VL: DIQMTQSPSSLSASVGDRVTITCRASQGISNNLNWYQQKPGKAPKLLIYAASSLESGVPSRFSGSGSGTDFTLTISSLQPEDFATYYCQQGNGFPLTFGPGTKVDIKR ) = 1.3
